Experiment: in vitro
Details: human, hela cells, % viability
REPORTED_PROPERTY: viability at 28.5 h, 10 µM (%)

> print(dat)
                                    compound           reported.property  unit.of.measure  recorded.measurement
 1  NS(=O)(=O)c1ccc(CCNC(=O)C2c3ccccc3Oc3ccccc32)cc1  viability at 28.5 h, 10 µM                %                   104
 2  COc1ccc2[nH]c3c(c2c1)CCNC31CCN(Cc2ccccc2)C1 (stereo not shown) [CBK073952C]  viability at 28.5 h, 10 µM                %                  86.5
 3             COc1ccccc1CNCCNC(=O)OC(C)(C)C  viability at 28.5 h, 10 µM                %                   105
 4  CC(C)(C)c1cc(C(=O)NCC2CCCN2)n(Cc2ccc(Cl)cc2Cl)n1 (stereo not shown) [CBK115920C]  viability at 28.5 h, 10 µM                %                  96.1
 5  C[C@@H]1CN2CCCC2CN1CC1CC=CCC1 (stereo partly shown)  viability at 28.5 h, 10 µM                %                  99.1
 6  CC(C)Oc1cccc(C(=O)Nc2ccc(N3CCN(C(=O)C(C)(C)C)CC3)cc2)c1  viability at 28.5 h, 10 µM                %                  88.7
 7  CCCC1NCCn2cccc21 (stereo not shown) [CBK007074F]  viability at 28.5 h, 10 µM                %                  85.6
 8           O=C(O)CCCC(=O)NCCc1ccc(Cl)cc1Cl  viability at 28.5 h, 10 µM                %                  88.8
 9  CCc1cc2c(=O)c(-c3nc(C)cs3)c(CCCC(=O)O)oc2cc1O  viability at 28.5 h, 10 µM                %                   101
10           c1ccc2c(c1)nc(N1CCNCC1)n1cnnc21  viability at 28.5 h, 10 µM                %                   100

---

Each entry below lists one item and its recorded viability at 28.5 h, 10 µM value.
Assay: in vitro
Conditions: human, hela cells, % viability
REPORTED_PROPERTY: viability at 28.5 h, 10 µM

> print(dat)
                                    compound  recorded.measurement
 1  Nc1ccc(Cl)cc1C(O)(CCCN1CCCCC1)c1ccccc1 (stereo not shown)                 98.1%
 2                Cc1ccncc1C(=O)Nc1c(C)noc1C                 80.7%
 3       Nc1n[nH]c(SCC(=O)Nc2ccc(Br)cc2Cl)n1                 95.3%
 4  Cc1nc(C)c(C(=O)N2CCCC(c3cc4cccnc4[nH]3)C2)s1 (stereo not shown)                 97.4%
 5  Cc1cccc([C@@H]2CN(Cc3ccccc3)C[C@]23CCCCC(=O)N3)n1                 97.1%
 6  Cc1cccc(C)c1OCC(=O)N1CCC(c2cc(C(=O)NC(C)C)c3ccccc3n2)C1 (stereo not shown)                  112%
 7  COc1ccc(/C=C/C(=O)O)cc1S(=O)(=O)N1CCCCCC1                 87.8%
 8  CC(=O)c1ccc2c3c(cccc13)CC(N(C)C)C2 (stereo not shown) [CBK005691S]                 95.8%
 9  COc1cccc(CC(=O)N2CCCC(c3cc4ncccc4[nH]3)C2)c1 (stereo not shown)                 94.1%
10  O=C(CN1CCCC(c2cccc(Cc3ccc(F)cc3)n2)C1)Nc1nccs1 (stereo not shown)                 93.1%

Measured values drawn from paper PMC12040169 for this set.
